experiment: Permeability of the compound from basolateral to apical side in human Caco2 cells at 10 uM; type: ADME, cell-based, Caco-2; settings: Caco-2, read-out: permeability
Test readout: Papp B→A at 10 µM (nm/s)
Number in nm/s, nothing else.

Recorded Papp B→A at 10 µM, per entry:
CC(C)OC(=O)[C@H](C)N[P@](=O)(OC[C@H]1O[C@@H](c2cnc3c(N)ncnn23)[C@](C)(F)[C@@H]1O)Oc1ccccc1	166
CC(C)OC(=O)C(C)(C)NP(=O)(OC[C@H]1O[C@@H](c2ccc3c(N)ncnn23)[C@](C)(F)[C@@H]1O)Oc1ccccc1 (some centres undefined)	176
CC(C)OC(=O)[C@H](C)N[P@@](=O)(O)OC[C@H]1O[C@@](C#N)(c2ccc3c(N)ncnn23)[C@](C)(O)[C@@H]1O	89

Please look at the following compound next.
Item CC(C)OC(=O)C1(NP(=O)(OC[C@H]2O[C@@H](c3cnc4c(N)ncnn34)[C@](C)(F)[C@@H]2O)Oc2ccccc2)CCC1 (stereo in doubt; 37) has what recorded Papp B→A at 10 µM?
97

// data source = ChEMBL document CHEMBL4007470
